Test system: DMS-273
Assay: NCI tumour cell line growth inhibition, 48 h
Activity calls are given as the source filed them. Rule as the data show it: active = GI50 up to about 1.1 µM and inactive = higher.
Please reply with one of these outcomes: active, inactive

Solved entries (count: 5):
COMPOUND	ASSIGNED_LABEL
CC(C)c1ccccc1NC(=O)C(=O)Cc1nc2ccccc2s1	inactive
CC1(C)CCc2cc3c(cc2O1)OC(C)(C)CC3=O	inactive
COC(=O)/C=C/C1C(C(=O)OC)C2(C(=O)OC)CCC1(C(=O)OC)N2 (configuration not stated)	inactive
COc1ccc(C23C(=O)c4ccccc4N2O[C@H]2C(=O)N(c4ccccc4)C(=O)[C@H]23)cc1 (some centres not stated)	inactive
Nc1ncn([C@@H]2C=C(CO)C(O)C2O)c(=O)n1 (some centres not stated)	inactive

Q: Please state the recorded outcome for this compound: CC1C[C@]2(C[C@@H](C)C(=O)O2)O[C@@H]2CC3(C)[C@@H]4CCC5C(C)(C)OC(=O)C[C@H]6OO[C@]4(CC[C@]3(C)C12)CC56O (some centres not stated)
Result: inactive

Q: Please indicate how the test categorized CCN1C(=O)C(N=[N+]=[N-])(c2ccccc2)C(=O)c2ccccc21 (configuration not stated) .
Result: inactive
